# pIC50 values compiled below
Molecular target: Recombinant STAT3 protein (STAT3 (G127-I722)) (Homo sapiens, UniProt P40763)
Construct: Recombinant STAT3 protein (STAT3 (G127-I722))
Sequence (P40763 127-722): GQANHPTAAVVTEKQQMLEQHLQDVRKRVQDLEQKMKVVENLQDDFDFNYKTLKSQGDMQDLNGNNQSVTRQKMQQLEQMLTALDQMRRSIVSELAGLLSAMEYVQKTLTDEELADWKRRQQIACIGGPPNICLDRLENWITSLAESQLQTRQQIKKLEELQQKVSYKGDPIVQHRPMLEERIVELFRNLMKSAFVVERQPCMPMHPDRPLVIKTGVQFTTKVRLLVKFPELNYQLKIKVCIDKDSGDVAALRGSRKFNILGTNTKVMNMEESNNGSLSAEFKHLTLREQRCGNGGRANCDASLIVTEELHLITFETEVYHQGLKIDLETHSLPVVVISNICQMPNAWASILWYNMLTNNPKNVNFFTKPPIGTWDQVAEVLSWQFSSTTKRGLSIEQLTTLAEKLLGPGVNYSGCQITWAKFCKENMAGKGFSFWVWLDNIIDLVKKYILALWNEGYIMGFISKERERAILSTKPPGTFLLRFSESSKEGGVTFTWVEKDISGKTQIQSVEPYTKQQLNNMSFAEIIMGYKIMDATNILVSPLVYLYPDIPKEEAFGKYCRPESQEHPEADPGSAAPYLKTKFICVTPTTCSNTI
Test: STAT3 Fluorescence Polarization (FP) Assay
Type: binding
Details: STAT3 (G127-I722) 25 nM, probe 5-FAM-GpYLPQTV-NH2 2 nM, 45-minute incubation; read-out: STAT3 (FP assay IC50 class)
pIC50: −log10 of the molar value.

Guide cases for pIC50, answers given:
Cn1ccnc1C1CN(C(=O)[C@@H]2CC[C@@H]3CCC[C@H](NC(=O)c4cc5cc(C(F)(F)P(=O)(O)O)ccc5s4)C(=O)N32)C1 [Compound 799] = > 7.00
N#C[C@@H]1[C@@H](c2cncc(Cl)c2)CN(C(=O)[C@@H]2CC[C@@H]3CCC[C@H](NC(=O)c4cc5cc([C@H](F)P(=O)(O)O)ccc5s4)C(=O)N32)C12CC2 (single isomer, unassigned) [Compound 841] = 5.00 to 6.00
O=C(N[C@H]1CCC[C@H]2CC[C@@H](C(=O)N3CC(c4cccnc4C(F)F)C3)N2C1=O)c1cc2cc(CP(=O)(O)O)ccc2s1 [Compound 562] = 6.00 to 7.00
C[C@H]1C[C@H]2CC[C@@H](C(=O)N3CC(c4cnccc4N(C)C)C3)N2C(=O)[C@@H](NC(=O)c2cc3cc([C@H](F)P(=O)(O)O)ccc3s2)C1 [Compound 736] = > 7.00

Proceed to the following item.
Annotate the compound COc1cc(C2CN(C(=O)[C@@H]3CC[C@@H]4CCC[C@H](NC(=O)c5cc6cc([C@@H](F)P(=O)(O)O)ccc6s5)C(=O)N43)C2)ccn1 (single isomer, unassigned) [Compound 702] with its measured pIC50.
6.00 to 7.00

---

# IC50 values compiled below
Biological target: Recombinant STAT6 protein (STAT6 (W123-T658)) (Homo sapiens, UniProt P42226)
Construct: Recombinant STAT6 protein (STAT6 (W123-T658))
Sequence (P42226 123-658): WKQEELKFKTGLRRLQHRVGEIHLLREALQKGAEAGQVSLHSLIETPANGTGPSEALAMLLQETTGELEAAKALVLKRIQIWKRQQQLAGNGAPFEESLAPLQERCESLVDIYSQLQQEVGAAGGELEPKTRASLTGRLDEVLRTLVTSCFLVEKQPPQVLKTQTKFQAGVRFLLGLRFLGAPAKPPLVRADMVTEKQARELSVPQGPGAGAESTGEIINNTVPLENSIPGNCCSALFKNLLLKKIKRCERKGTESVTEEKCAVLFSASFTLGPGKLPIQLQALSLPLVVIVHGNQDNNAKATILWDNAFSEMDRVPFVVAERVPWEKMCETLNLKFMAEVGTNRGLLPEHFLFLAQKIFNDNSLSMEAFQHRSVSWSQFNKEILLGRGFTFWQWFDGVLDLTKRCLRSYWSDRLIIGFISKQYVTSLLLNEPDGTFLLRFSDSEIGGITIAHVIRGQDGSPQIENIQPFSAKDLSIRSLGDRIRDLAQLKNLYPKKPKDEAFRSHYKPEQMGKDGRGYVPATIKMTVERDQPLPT
Experiment: STAT6 Fluorescence Polarization (FP) Assay
Assay type: binding
Conditions: STAT6 (W123-T658) 250 nM, probe 5-FAM-Ap[…]-NH2 2 nM, 45-minute incubation; read-out: STAT6 (FP assay IC50 class)
Method: STAT6 Fluorescence Polarization (FP) Assay An FP assay was developed to determine IC50 values for test substances. […] Reaction components were mixed, and FP was measured after 45-minute incubation at room temperature using a Tecan Spark multimode plate reader. FP signal (mP) was plotted against the log concentration of the test substances and IC50 values were calculated by nonlinear regression analysis using GraphPad Prism software. […]

Guide cases for IC50, answers given:
CN(C)c1ncncc1C1CN(C(=O)[C@@H]2CC[C@@H]3CCC[C@H](NC(=O)c4cc5cc([C@@H](F)P(=O)(O)O)ccc5s4)C(=O)N32)C1 (single isomer, unassigned) = 3 to 30 µM
O=C(N[C@H]1CCCC[C@H]2CC[C@@H](C(=O)NC(CO)c3c[nH]c4ncccc34)N2C1=O)c1cc2cc(C(F)(F)P(=O)(O)O)ccc2s1 (stereo partly shown) = 3 to 30 µM
N#CC1CN(c2ccncc2C2CN(C(=O)[C@@H]3CC[C@@H]4CCC[C@H](NC(=O)c5cc6cc(CP(=O)(O)O)ccc6s5)C(=O)N43)C2)C1 = 3 to 30 µM
O=C(N[C@H]1CCC[C@H]2CC[C@@H](C(=O)N3CCC(c4ncncc4F)CC3)N2C1=O)c1cc2cc(C(F)P(=O)(O)O)ccc2s1 (stereo partly shown) = 3 to 30 µM
COC1(c2nncn2C)CN(C(=O)[C@@H]2CC[C@@H]3CCC[C@H](NC(=O)c4cc5cc(C(F)(F)P(=O)(O)O)ccc5s4)C(=O)N32)C1 = 3 to 30 µM
CS(=O)(=O)CC1CN(C(=O)[C@@H]2CC[C@@H]3CCC[C@H](NC(=O)c4cc5cc(C(F)(F)P(=O)(O)O)ccc5s4)C(=O)N32)C1 = 3 to 30 µM
CCc1ccncc1C1CN(C(=O)[C@@H]2CC[C@@H]3CCC[C@H](NC(=O)c4cc5cc(CP(=O)(O)O)ccn5n4)C(=O)N32)C1 = 3 to 30 µM
N#C[C@H]1[C@H](c2ccccc2)CN(C(=O)[C@@H]2CC[C@@H]3C[C@@H](N4CCC4)CC[C@H](NC(=O)c4cc5cc([C@H](F)P(=O)(O)O)ccc5s4)C(=O)N32)C12CC2 (single isomer, unassigned) = ≤ 0.3 µM
O=C(N[C@H]1CCCC[C@H]2CC[C@@H](C(=O)N3CC(Cc4ccccn4)C3)N2C1=O)c1cc2cc(C(F)(F)P(=O)(O)O)ccc2s1 = 0.3 to 3 µM
CC(F)(c1ccc2sc(C(=O)N[C@H]3CCCC[C@H]4CC[C@@H](C(=O)N5CCC(c6cccnc6)C5)N4C3=O)cc2c1)P(=O)(O)O (stereo partly shown) = 0.3 to 3 µM

Annotate the compound CC(=O)N1C[C@H](NC(=O)[C@@H]2CC[C@@H]3CCC[C@H](NC(=O)c4cc5cc(CP(=O)(O)O)ccc5s4)C(=O)N32)[C@@H](F)C1 with its measured IC50.
3 to 30 µM

Annotate the compound O=C(N[C@H]1CCCC[C@H]2CC[C@@H](C(=O)N3CCC(c4cccnc4)C3)N2C1=O)c1cc2cc(C(F)P(=O)(O)O)ccc2s1 (stereo partly shown) with its measured IC50.
0.3 to 3 µM

Annotate the compound O=C(N[C@H]1CCC[C@H]2CC[C@@H](C(=O)N3CC(c4nccc(C(F)(F)F)n4)C3)N2C1=O)c1cc2cc(C(F)(F)P(=O)(O)O)ccc2s1 with its measured IC50.
3 to 30 µM

Annotate the compound O=C(N[C@H]1CCCC[C@H]2CC[C@@H](C(=O)N[C@@H]3CCN(c4ccn[nH]4)C3)N2C1=O)c1cc2cc(C(F)P(=O)(O)O)ccc2s1 (stereo partly shown) with its measured IC50.
0.3 to 3 µM

Annotate the compound CC(C)c1ccncc1C1CN(C(=O)[C@@H]2CC[C@@H]3CCC[C@H](NC(=O)c4cc5cc(C(F)P(=O)(O)O)ccc5s4)C(=O)N32)C1 (stereo partly shown) with its measured IC50.
3 to 30 µM

Annotate the compound Cc1ccncc1C1CN(C(=O)[C@@H]2CC[C@@H]3CCCC[C@H](NC(=O)c4cc5cc(CP(=O)(O)O)ccc5s4)C(=O)N32)C1 with its measured IC50.
3 to 30 µM
